Test system: M14 melanoma
experiment.description: NCI tumour cell line growth inhibition, 48 h
test.readout: TGI

// batch mode: one TGI value per listed entry
1. N/N=C(\C(=O)Nc1ccc([N+](=O)[O-])cc1)C(C1=Nc2cc([N+](=O)[O-])ccc2NC1)[N+](=O)[O-] (stereo not given)
2. O=C(O)/C=C\C(=O)Nc1ccc2c(c1)C(=O)c1cc(F)ccc1-2
3. O=C1c2ccccc2C(=O)c2c1ccc1c2OCO1
4. CC[C@@]1(O)C(=O)OCc2c1cc1n(c2=O)Cc2c-1nc1ccccc1c2/C=N/OC(C)(C)C

Result:
["> 100 µM", "> 100 µM", "> 100 µM", "0.226 µM"]

---

Test system: OVCAR-5 ovarian
experiment.description: NCI tumour cell line growth inhibition, 48 h
test.readout: TGI

Examples with their reported TGI follow.
# compound, result
records = [
    ("COC(=O)c1scc(N)c1-n1ccc(=O)[nH]c1=O", "> 100 µM"),
    ("O=C(Nc1c(Cl)cc([N+](=O)[O-])cc1Cl)/C(=N\\Nc1cccc(Cl)c1)c1c(O)c2ccccc2oc1=O", "> 100 µM"),
    ("CCNCCNC(=O)c1ccc(Br)cc1", "> 100 µM"),
]

Now examine the next entry.
Q: Given the compound CC1(C)C2CCC1(CC(=O)O)C(Cl)C2 (centres undefined) , write its reported TGI.
Result: > 100 µM

---

Test system: TK-10 renal
experiment.description: NCI tumour cell line growth inhibition, 48 h; in the data active = GI50 below about 0.43 µM; inactive = the rest
*1 amine or outer side, *2 acyl side, *3 side chain or, on linkers, in order; H or OH if unused. Where a SMILES comes first, the peptide text is derived from it. Bridges are numbered along the chain shown (N, C = ends). [ ]: non-standard residue; d: D form. The star is where a group is joined. Phe(3-Me) = Cc1cccc(C[C@H](N)C(=O)O)c1; NH(4-Cl-2-F-phenyl) = Fc1cc(Cl)ccc1N*; Pro(4R-Me) = C[C@H]1CN[C@H](C(=O)O)C1; Propanoyl(3-NMe2) = CN(C)CCC(=O)*; Hyp = O=C(O)[C@@H]1C[C@@H](O)CN1; aThr = C[C@H](O)[C@H](N)C(=O)O; Pip = O=C(O)[C@@H]1CCCCN1; CO = O=C([*:1])[*:2]
Returns: one label drawn from active, inactive

Reference set (5 entries):
# compound, measurement.target, category.label
records = [
    ("S=C(N/N=C(/c1ccccc1)c1ccccn1)Nc1cccc(Cl)c1", "TK-10 renal", "active"),
    ("COc1ccc(/C=C/C(=O)c2ccc(Nc3ccnc4cc(Cl)ccc34)cc2)cc1", "TK-10 renal", "inactive"),
    ("Cc1cccc(C[C@H](NC(=O)Nc2ccc(Cl)cc2F)C(=O)N[C@@H]2C(=O)N3C[C@H](OC(=O)CCN(C)C)C[C@H]3C(=O)N3CCCC[C@H]3C(=O)N[C@@H](C)C(=O)N3C[C@H](C)C[C@H]3C(=O)O[C@H]2C)c1 ({NH(4-Cl-2-F-phenyl)-CO}-[Phe(3-Me)][aThr][Hyp](Propanoyl(3-NMe2))[Pip]A[Pro(4R-Me)]; ester 2-C)", "TK-10 renal", "inactive"),
    ("CCCCCCCCCC(CCCC(O)CC(=O)O)OC1OC(COC2OC(C)C(O)C(O)C2O)C(O)C(O)C1OC1OC(CO)C(O)C(O)C1OC1OC(C)C(O)C(O)C1O (stereo unspecified)", "TK-10 renal", "inactive"),
    ("C=C(CN1CCN(c2cccc(F)c2)CC1)c1ccc(C(=O)Nc2ccccc2N)cc1", "TK-10 renal", "inactive"),
]

Q: Called result for COc1cc2c3c(n(CCCCl)c(=O)c2cc1OC)-c1ccc(C#N)cc1C3=O
Result: inactive

Q: Called result for COc1ccc(-c2nocc2-c2cc(OC)c(OC)c(OC)c2)cc1
Result: inactive

Q: Called result for CCc1ccc(Nc2cc(C)nc3nc(C)nn23)cc1
Result: inactive

Q: Called result for C[C@@]1(N2C(=O)OC[C@@H]2c2ccccc2)C(=O)N([C@H](CC(=O)N2CCC(N3CCCCC3)CC2)C(=O)NCc2cccc(C(F)(F)F)c2)[C@@H]1/C=C/c1ccccc1
Result: inactive

Q: Called result for C[n+]1ccc(-c2c3nc(c(-c4ccc5c(ccc[n+]5C)c4)c4ccc([nH]4)c(-c4cc[n+](C)cc4)c4nc(c(-c5ccc6c(ccc[n+]6C)c5)c5ccc2[nH]5)C=C4)C=C3)cc1
Result: inactive

Q: Called result for O=c1cccc(C#CC#C/C=C/CO)o1
Result: inactive

Numbers sourced from PubChem BioAssay (NCI).
